molecular target: UniProt P11229; experiment: Measurement of M1 receptor positive allosteric modulator (M1PAM) activity, calcium fluorescence in CHO-K1 cells; conditions: inflection point of concentration-dependent curve; in the presence of acetylcholine at EC20 concentration (final 0.8-1.0 nM); read-out: IP value
Sequence (P11229 whole entry): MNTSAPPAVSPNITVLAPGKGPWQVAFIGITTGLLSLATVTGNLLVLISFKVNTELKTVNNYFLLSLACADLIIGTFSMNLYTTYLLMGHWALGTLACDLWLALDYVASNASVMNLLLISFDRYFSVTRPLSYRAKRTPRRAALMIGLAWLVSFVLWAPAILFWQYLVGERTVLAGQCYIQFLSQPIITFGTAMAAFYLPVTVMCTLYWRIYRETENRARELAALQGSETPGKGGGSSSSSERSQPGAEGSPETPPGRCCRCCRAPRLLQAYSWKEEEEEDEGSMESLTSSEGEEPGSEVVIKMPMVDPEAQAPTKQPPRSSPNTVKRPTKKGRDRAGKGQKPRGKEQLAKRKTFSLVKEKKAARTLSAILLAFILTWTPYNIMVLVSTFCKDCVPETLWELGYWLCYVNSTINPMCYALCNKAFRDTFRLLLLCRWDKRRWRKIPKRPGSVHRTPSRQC
READOUT_TYPE: EC50 (nM)

# count of solved cases: 2
Cc1c(Cc2ccc(C(=O)NC[C@H]3CCCO3)c(F)c2)cc2c(=O)n([C@H]3CCOC[C@@H]3O)cnc2c1C :: 3.7
Cc1c(Cc2ccc(-c3cnn(C)c3)nc2)cc2c(=O)n([C@H]3CCOC[C@@H]3O)cnc2c1C :: 0.96

[A] COc1cc2ncn([C@H]3CCOC[C@@H]3O)c(=O)c2cc1Cc1ccc(-c2cnn(C)c2)nc1
[B] CNC(=O)c1ccc(Cc2cc3c(=O)n([C@H]4CCOC[C@@H]4O)cnc3c(C)c2C)cc1F
[C] Cc1c(Cc2ccc(C(=O)NC3(C)COC3)c(F)c2)cc2c(=O)n([C@H]3CCOC[C@@H]3O)cnc2c1C
[D] COC1CN(C(=O)c2ccc(Cc3cc4c(=O)n([C@H]5CCOC[C@@H]5O)cnc4c(C)c3C)cc2)C1
Task: Order by EC50, ascending. Respond with the label ranking, as requested.
Result: B, A, C, D
(B: 1 nM, A: 1.9 nM, C: 3 nM, D: 11 nM)

[1] CNC(=O)c1ccc(Cc2cc3c(=O)n([C@H]4CCOC[C@@H]4O)nnc3c(Cl)c2C)cc1F
[2] Cc1c(Cc2ccc(-c3ccn(C)n3)nc2)cc2c(=O)n([C@H]3CCOC[C@@H]3O)cnc2c1Cl
Task: Which one would you say has the larger EC50 value: 1 , or 2 ? # respond with the chosen item's label
Result: 1
(1: 1.6 nM, 2: 1 nM)

[I] COCCn1cc(-c2ccc(Cc3cc4c(=O)n([C@H]5CCOC[C@@H]5O)cnc4c(C)c3C)cn2)cn1
[II] Cc1c(Cc2ccc(C(=O)NCCO)cc2)cc2c(=O)n([C@H]3CCOC[C@@H]3O)cnc2c1C
[III] Cc1c(Cc2ccc(-c3ccn(C)n3)nc2)cc2c(=O)n([C@H]3CCOC[C@@H]3O)cnc2c1C
Task: List items by EC50 in falling order. Respond with the label ranking, as requested.
Result: III, I, II

Reference source: patent US11560372B2
